# System: Chikungunya virus (CHIKV)
# Assay: microbe, parasite or virus in culture
# Type: cell-based
# Settings: Chikungunya virus, Vero, 48 h, read-out: Percent viral inhibition CHKV
Recorded Endpoint: inhibition at 1 µM
Please make sure the unit comes right after the number.

Known results for molecules:
{"Molecule": "O=S(=O)(O)CC1CCN(Cc2cc(Oc3ccc(N4CCNCC4)nc3)nc(-c3cc(Cl)cc(Cl)c3)c2)CC1", "Experimental Target": "Chikungunya virus (CHIKV)", "Observed": "1.77%"}
{"Molecule": "CC(=O)NCC1CCN(Cc2cc(Oc3cnc(N4CCN(C[C@@H](C)O)CC4)nc3)nc(-c3cc(Cl)cc(Cl)c3)c2)CC1", "Experimental Target": "Chikungunya virus (CHIKV)", "Observed": "39%"}
{"Molecule": "CN1CCCN(c2ncc(Oc3cc(CN4CCC(CC(=O)O)CC4)cc(-c4cc(Cl)cc(Cl)c4)n3)cn2)CC1", "Experimental Target": "Chikungunya virus (CHIKV)", "Observed": "23.6%"}

Please look at the items below and tell me inhibition at 1 µM for each one, in order.
1. CNC(=O)NCC1CCN(Cc2cc(Oc3cnc(N4CCN(CCCO)CC4)nc3)nc(-c3cc(Cl)cc(Cl)c3)c2)CC1
2. CC(=O)NCC1CCN(Cc2cc(Oc3cnc(N4CCN(CCC(C)C(=O)O)CC4)nc3)nc(-c3cc(Cl)cc(Cl)c3)c2)CC1 (stereo not drawn)
3. CC(=O)NCC1CCN(Cc2cc(Oc3cnc(N4CCN(CCS(N)(=O)=O)CC4)nc3)nc(-c3cc(Cl)cc(Cl)c3)c2)CC1

Result string:
1. 0%
2. 32.9%
3. 0%

* * *

# Test system: Marburg virus (MARV)
# Assay: organism not typed
# Format: cell-based
# Settings: Vero, 72 h, read-out: Percent viral inhibition MARV
Threshold rule: inhibition at 1 µM greater than or equal to 50% is label 1; below that, label 0.

Observe how each entry below is paired with its result.
{"Molecule": "CN1CCN(c2ncc(Oc3cc(CN4CCO[C@H](CCO)CC4)cc(-c4cc(Cl)cc(Cl)c4)n3)cn2)CC1", "Category Label": "label 1"}
{"Molecule": "NS(=O)(=O)CCC1CCN(Cc2cc(Oc3ccc(N4CCN(CCC(=O)O)CC4)nc3)nc(-c3cc(Cl)cc(Cl)c3)c2)CC1", "Category Label": "label 1"}
{"Molecule": "CN1CCN(c2ncc(Oc3cc(CN4CCC(CCB(O)O)CC4)cc(-c4cc(Cl)cc(Cl)c4)n3)cn2)CC1", "Category Label": "label 0"}
{"Molecule": "CC(=O)NCC1CCN(Cc2cc(Oc3ccc(N4CCN(C(=O)CCC(=O)O)CC4)nc3)nc(-c3cc(Cl)cc(Cl)c3)c2)CC1", "Category Label": "label 1"}
{"Molecule": "CN1CCCN(c2ncc(Oc3cc(CN4CC[C@@H]5[C@H](CC4)[C@H]5C(=O)O)cc(-c4cc(Cl)cc(Cl)c4)n3)cn2)CC1", "Category Label": "label 0"}

Query string: Does the reported inhibition at 1 µM for CC(=O)NCC1CCN(Cc2cc(Oc3cnc(N4CCN(CCC(=O)O)CC4)cn3)nc(-c3cc(Cl)cc(Cl)c3)c2)CC1 fall at or above the 50% mark?
Result string: label 0

Query string: Does the reported inhibition at 1 µM for COC(=O)NCC1CCN(Cc2cc(Oc3cnc(N4CC5CCC(C4)N5CCC(=O)O)nc3)nc(-c3cc(Cl)cc(Cl)c3)c2)CC1 fall at or above the 50% mark?
Result string: label 1

Query string: Does the reported inhibition at 1 µM for O=C(O)CCC1CCN(Cc2cc(Oc3ccc(N4CCN(CCO)CC4)nc3)nc(-c3cc(Cl)cc(Cl)c3)c2)CC1 fall at or above the 50% mark?
Result string: label 1

Query string: Does the reported inhibition at 1 µM for CC(=O)NCC1CCN(Cc2cc(Oc3ccc(N)cc3)cc(-c3cc(Cl)cc(Cl)c3)c2)CC1 fall at or above the 50% mark?
Result string: label 0

Query string: Does the reported inhibition at 1 µM for CN1CCCN(c2ccc(Oc3cc(CN4CCC(CC(=O)O)CC4)cc(-c4cc(Cl)cc(Cl)c4)n3)nn2)CC1 fall at or above the 50% mark?
Result string: label 1

Query string: Does the reported inhibition at 1 µM for CC(=O)NCC1CCN(Cc2cc(Oc3cnc(N4CCN(CCC(C)C(=O)O)CC4)cn3)nc(-c3cc(Cl)cc(Cl)c3)c2)CC1 (stereo not drawn) fall at or above the 50% mark?
Result string: label 0

Query string: Does the reported inhibition at 1 µM for O=C(O)CCC1CCN(Cc2cc(Oc3cnc(N4CCN(CCO)CC4)nc3)cc(-c3cc(Cl)cc(Cl)c3)c2)CC1 fall at or above the 50% mark?
Result string: label 1

Query string: Does the reported inhibition at 1 µM for CS(=O)(=O)CCCN1CCN(c2ncc(Oc3cc(CN4CCC(CCC(=O)O)CC4)cc(-c4cc(Cl)cc(Cl)c4)n3)cn2)CC1 fall at or above the 50% mark?
Result string: label 0

Query string: Does the reported inhibition at 1 µM for CC(=O)NCC1CCN(Cc2cc(Oc3ccc(N4CCN(CC5(CO)CC5)CC4)nc3)nc(-c3cc(Cl)cc(Cl)c3)c2)CC1 fall at or above the 50% mark?
Result string: label 0

Query string: Does the reported inhibition at 1 µM for C[C@]1(O)C[C@@H](N2CCN(c3ncc(Oc4cc(CN5CCC(CC(=O)O)CC5)cc(-c5cc(Cl)cc(Cl)c5)n4)cn3)CC2)C1 fall at or above the 50% mark?
Result string: label 1

Query string: Does the reported inhibition at 1 µM for FC1CCN(Cc2cc(Oc3cnc(N4CCN5CCC4C5)nc3)nc(-c3cc(Cl)cc(Cl)c3)c2)CC1 (stereo not drawn) fall at or above the 50% mark?
Result string: label 0

Query string: Does the reported inhibition at 1 µM for CC(CC1CCN(Cc2cc(Oc3cnc(N4CCNCC4)nc3)nc(-c3cc(Cl)cc(Cl)c3)c2)CC1)C(=O)O (stereo not drawn) fall at or above the 50% mark?
Result string: label 0

Query string: Does the reported inhibition at 1 µM for O=C(O)CC1CCN(Cc2cc(Oc3cnc(N4CCN(CC(O)CO)CC4)nc3)nc(-c3cc(Cl)cc(Cl)c3)c2)CC1 (stereo not drawn) fall at or above the 50% mark?
Result string: label 0
